testDescription: in vivo
conditionInfo: Sprague-Dawley, rat, ip, 10 mg/kg
endpoint: Kp
Number, no unit, nothing else.

So what's the measured Kp for this one? C[N+]1(C)CC[C@]23c4c5ccc(O)c4O[C@H]2C(=O)CC[C@H]3[C@H]1C5 [N-methylhydromorphone, N-methylhydromorphonium iodide]
0.02

----------
targetUnderTest: μ opioid receptor (μ membrane protein) (Homo sapiens)
Sequence (P35372 whole entry, species assumed): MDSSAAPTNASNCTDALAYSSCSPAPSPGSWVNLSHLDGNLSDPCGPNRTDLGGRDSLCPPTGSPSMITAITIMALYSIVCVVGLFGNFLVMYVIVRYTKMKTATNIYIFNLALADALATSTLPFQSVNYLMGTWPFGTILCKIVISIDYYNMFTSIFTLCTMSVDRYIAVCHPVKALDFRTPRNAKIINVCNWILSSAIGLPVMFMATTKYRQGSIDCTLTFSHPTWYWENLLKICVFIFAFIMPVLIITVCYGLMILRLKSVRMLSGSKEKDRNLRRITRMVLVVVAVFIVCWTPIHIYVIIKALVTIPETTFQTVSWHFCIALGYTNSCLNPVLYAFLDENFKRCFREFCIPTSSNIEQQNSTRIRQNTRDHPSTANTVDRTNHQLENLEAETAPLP
testDescription: biochemical
endpoint: pEC50
// pEC50 is dimensionless: -log10 of concentration (M)

Form: Entry = C[N+]1(C)CC[C@]23c4c5ccc(O)c4O[C@H]2C(=O)CC[C@H]3[C@H]1C5 [N-methylhydromorphone, N-methylhydromorphonium iodide] | System = μ opioid receptor (μ membrane protein) (Homo sapiens) | pEC50 = ____
6.09

Measured values drawn from patent US6825205B2 for this set.
